Values were extracted from paper PMC5715060.

Target: HarmPBP1 mutant W37A (Helicoverpa armigera, UniProt F5ANH9, W64A)
Test: Fluorescence binding assay (1-NPN probe), mutant W37A
Assign IC50 to each entry below.
Write the answer as a number in µM, unit excluded.

Entry CCCCCC/C=C\CCCCCCCC=O [Z9-16:Ald, (Z)-9-hexadecenal] has what IC50?
2.22

Field request: IC50 | item: CCCC/C=C\CCCCCCCCCC=O [Z11-16:Ald, (Z)-11-hexadecenal]
2.91

---

Kindly state IC50 for each of the entries shown.
Target: HarmPBP1 mutant F12A (Helicoverpa armigera, UniProt F5ANH9, F39A)
Sequence (F5ANH9 entry or part of it F39A): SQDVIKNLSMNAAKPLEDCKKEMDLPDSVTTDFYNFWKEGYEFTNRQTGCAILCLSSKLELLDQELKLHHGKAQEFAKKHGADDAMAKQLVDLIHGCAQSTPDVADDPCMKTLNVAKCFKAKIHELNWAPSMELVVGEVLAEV
Assay: Fluorescence binding assay (1-NPN probe), mutant F12A

Query the reported IC50 for HarmPBP1 mutant F12A (Helicoverpa armigera, UniProt F5ANH9, F39A); item: CCCC/C=C\CCCCCCCCCC=O [Z11-16:Ald, (Z)-11-hexadecenal]
4.69 µM

Any idea what IC50 came out for CCCCCC/C=C\CCCCCCCC=O [Z9-16:Ald, (Z)-9-hexadecenal] on HarmPBP1 mutant F12A (Helicoverpa armigera, UniProt F5ANH9, F39A)?
4.63 µM
